Test: qHTS assay to identify small molecule agonists of the sonic hedgehog signaling (Shh) pathway - cell viability counter screen (AID 1259366); further: on the % scale 0 is the no-effect control and ±100 the full control effect; nearly all actives have a fitted effect of over 50% in size
Conditions: NIH/3T3 Gli1-Luc viability, CellTiter-Fluor, 24 h; series mostly up to 92.4 µM
Source text: National Center for Advancing Translational Sciences [NCATS] NIH Chemical Genomics Center [NCGC] U.S. Environmental Protection Agency [EPA] National Institutes of Environmental Health Sciences [NIEHS] National Toxicology Program [NTP] U.S. Food and Drug Administration [FDA] The sonic hedgehog (Shh) pathway is essential for normal embryonic development. Dysregulation of the Shh pathway can cause severe developmental defects in organs. […]
Records with an inconclusive call do not appear. The source made the active and inactive calls. The call rests on the fitted dose curve; in most records, active means well fitted cell-killing curve with a large enough effect in the repeat runs; inconclusive means weak or mixed curves, or effect the other way; inactive means flat fitted curve, though single readings scatter.

- compound: "C=CC(C)(O)CC/C=C(\\C)CCC=C(C)C (stereo not given)"
  viability change, negative = cytotoxic: "inactive"
- compound: "NC(Cc1ccc(F)cc1)C(=O)O (stereo not given)"
  viability change, negative = cytotoxic: "-12.8% [at 8.39 µM] (inactive)"
- compound: "NS(=O)(=O)c1cc(-c2nn[nH]n2)c(NCc2cccs2)cc1Cl"
  viability change, negative = cytotoxic: "inactive"
- compound: "CC(C)(C)c1cccc(O)c1"
  viability change, negative = cytotoxic: "inactive"
- compound: "CCOC(=O)C1CC(=O)C(=C(O)C2CC2)C(=O)C1 (stereo not given)"
  viability change, negative = cytotoxic: "inactive"
- compound: "O=C1CCCCC1C1CCCCC1 (stereo not given)"
  viability change, negative = cytotoxic: "inactive"
- compound: "O=C(CC(=O)C(F)(F)F)c1ccccc1"
  viability change, negative = cytotoxic: "inactive"
- compound: "Cc1ccc(C(C)C)cc1O"
  viability change, negative = cytotoxic: "inactive"
- compound: "CCCOCCC"
  viability change, negative = cytotoxic: "inactive"
- compound: "O=C(O)c1cccc(Cl)c1Cl"
  viability change, negative = cytotoxic: "inactive"

Data provenance: PubChem BioAssay (Tox21)
